- subject.of.test: T1, human MAdCAM expressed on cells (human, UniProt Q13477 19-382)
- T1 construct: whole, on cells; also called MADCAM1
- T1 sequence (looked up): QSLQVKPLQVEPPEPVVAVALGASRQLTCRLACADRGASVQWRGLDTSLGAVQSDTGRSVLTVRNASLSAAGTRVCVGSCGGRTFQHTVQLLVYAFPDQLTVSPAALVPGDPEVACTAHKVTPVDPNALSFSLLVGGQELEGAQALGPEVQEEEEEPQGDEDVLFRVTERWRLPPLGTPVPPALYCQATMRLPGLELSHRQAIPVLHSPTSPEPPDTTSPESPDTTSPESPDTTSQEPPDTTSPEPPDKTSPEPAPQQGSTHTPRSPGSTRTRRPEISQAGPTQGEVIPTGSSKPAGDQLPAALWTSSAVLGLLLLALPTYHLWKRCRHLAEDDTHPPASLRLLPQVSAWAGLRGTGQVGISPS
- test.name: cell binding

binder | binding result
MAdCAM Antibody Table 2 Clone 30 (antibody, human IgG1, V domains shown) VH: EVQLLESGGGLVQPGGSLRLSCAASGFTFSSYAMHWVRQAPGKGLEWVSGISGSGGSAYYADSVKGRFTISRDNSKNTLYLQMNSLRAEDTAVYYCATSQAPVDYYYYGMDVWGQGTTVTVSS VL: DIQMTQSPSSLSASVGDRVTITCRASQSISSWLAWYQQKPGKAPKLLIYAASNLQRGVPSRFSGSGSGTDFTLTISSLQPEDFATYYCQQSYSIPITFGQGTKVEIK | binds

Values compiled from patent US20210206856A1.
